Assay: Therapeutic index, TC50 for human CEM174 cells to EC50 for SIV-induced syncytium
Assay type: cell-based
Settings: read-out: TI
property: selectivity ratio
Form field (numeric): enter value without unit.

Sample answers from the record:
O=C(N/N=C/c1ccccc1)[C@H](CO)NS(=O)(=O)c1ccc(Br)cc1 :: 2.2
O=C(CNS(=O)(=O)c1ccc(Br)cc1)N/N=C/c1ccccc1 :: 284
Cc1ccc(S(=O)(=O)N/N=C/c2ccccc2)cc1 :: 88.1
Cc1ccc(S(=O)(=O)N[C@@H](Cc2ccccc2)C(=O)N/N=C/c2ccco2)cc1 :: 40.6
C/C(=N\NC(=O)[C@H](Cc1ccccc1)NS(=O)(=O)c1ccc(C)cc1)c1ccccc1 :: 70.7
Cc1ccc(S(=O)(=O)N[C@@H](Cc2ccccc2)C(=O)N/N=C/c2ccc(Cl)cc2)cc1 :: 3.4
COc1ccc(C(=O)N[C@@H](CO)C(=O)N/N=C/c2ccccc2)cc1 :: 76

Kindly review the next compound as well.
Consider the compound O=C(N/N=C/c1ccccc1)c1ccc([N+](=O)[O-])cc1 and give its measured selectivity ratio.
5.3

###

# reported CC50 at 120 h; entries follow
Test: Cytotoxicity against uninfected human CEM174 cells after 5 days by MTT assay
Format: cell-based
Conditions: read-out: TC50
Give the number; µM is assumed, so skip it.

Cc1ccc(S(=O)(=O)N[C@@H](Cc2ccccc2)C(=O)N/N=C/c2ccc([N+](=O)[O-])cc2)cc1 :: 9.8
C/C(=N\NC(=O)[C@H](Cc1ccccc1)NS(=O)(=O)c1ccc(C)cc1)c1ccccc1 :: 21.2

Consider the molecule CC(=O)Nc1ccc(S(=O)(=O)N/N=C/c2ccccc2)cc1 and give its measured CC50 at 120 h.
40

Same again, this time with Cc1ccc(S(=O)(=O)N[C@@H](CO)C(=O)N/N=C/c2ccccc2)cc1
5.19

Same again, this time with O=C(N/N=C/c1ccccc1)[C@H](CO)NS(=O)(=O)c1ccc(Br)cc1
80.2

Same again, this time with C/C(=N\NC(=O)[C@H](Cc1ccccc1)NS(=O)(=O)c1ccc(C)cc1)c1cccc2ccccc12
49.1

Same again, this time with Cc1ccc(S(=O)(=O)N/N=C/c2ccccc2)cc1
31.7

Same again, this time with O=C(N/N=C/c1ccccc1)c1ccc([N+](=O)[O-])cc1
29.6

Same again, this time with Cc1ccc(S(=O)(=O)N[C@@H](Cc2ccccc2)C(=O)N/N=C/c2ccccc2)cc1
50

Same again, this time with COc1ccc(C(=O)NCC(=O)N/N=C/c2ccccc2)cc1
63.8

Same again, this time with Cc1ccc(S(=O)(=O)N[C@@H](Cc2ccccc2)C(=O)NN=C2CCCCC2)cc1
78.3

Same again, this time with O=C(N[C@@H](Cc1ccccc1)C(=O)N/N=C/c1ccccc1)c1ccc([N+](=O)[O-])cc1
18.7

###

Assay: Cytotoxicity against uninfected human CEM174 cells after 5 days by MTT assay
Type: cell-based
Conditions: read-out: TC50
property: CC50 at 120 h

Sample answers from the record:
Cc1ccc(/C=N/NC(=O)[C@H](Cc2ccccc2)NS(=O)(=O)c2ccc(C)cc2)cc1 :: > 100 µM
O=C(N/N=C/c1ccccc1)[C@H](Cc1ccccc1)NS(=O)(=O)c1ccc(Br)cc1 :: > 100 µM

Consider the compound Cc1ccc(S(=O)(=O)N[C@@H](Cc2ccccc2)C(=O)N/N=C/c2ccccc2F)cc1 and give its measured CC50 at 120 h.
> 100 µM
